Cited source: patent US9163018B2

Test system: Abeta in extract of post-mortem human AD brain tissue
Assay: BAS: human brain amyloid solubilization assay
Type: biochemical
Conditions: max effect across the concentration range, referenced to baseline PBS

{"columns": ["Molecular string", "BAS max effect, %"],
 "data": [
  ["Cc1ccccc1-c1cc(Cl)c2cccnc2c1O", 520],
  ["Cn1cnc2c(O)cccc21", 319],
  ["Cl.Nc1ccc(O)c2ncccc12", 191],
  ["Cc1ccc(-c2ccc(C)cn2)nc1", 358],
  ["Oc1c(Br)cc(Br)c2cccnc12", 412],
  ["O=c1[nH]cnc2c(O)cccc12", 237],
  ["CN(C)Cc1ccc2c(Cl)cc(Cl)c(O)c2n1.Cl", 470],
  ["O=C(NCCc1c[nH]cn1)c1ccc2c(Cl)cc(Cl)c(O)c2n1", 627],
  ["COc1cc(NS(=O)(=O)c2ccc(C)cc2)c2ncccc2c1", 220],
  ["O=C(NCc1ccccn1)c1ccc2cccc(O)c2n1", 201],
  ["Cc1cccc(-c2cc(Cl)c3cccnc3c2O)c1", 266],
  ["Cc1cnc(NC(=O)c2ccc3cccc(O)c3n2)s1", 325],
  ["Oc1c(Cl)cc(Cl)c2cccnc12", 387],
  ["Oc1cccc2nc3ccccc3nc12", 306],
  ["Cc1ccccc1-c1cc(I)c(O)c2ncccc12", 439],
  ["NCc1ccc2cccc(O)c2n1", 390],
  ["Oc1cccc2ccc(-c3ccccn3)nc12", 463],
  ["NCCNC(=O)c1ccc2cccc(O)c2n1", 190],
  ["COc1ccccc1-c1cc(-c2ccccc2OC)c2cccnc2c1O", 256],
  ["Oc1c(Br)cc(-c2ccccc2)c2cccnc12", 311],
  ["COc1ccccc1-c1cc(I)c(O)c2ncccc12", 386],
  ["COc1ccc(-c2cc(Cl)c3cccnc3c2O)cc1", 209],
  ["COc1cccc(-c2cc(Cl)c3cccnc3c2O)c1", 184],
  ["O=c1ccnc2c(O)cccn12", 257],
  ["CCN(CC)c1ccc2cc(-c3nc4ccccc4s3)c(=O)oc2c1", 580],
  ["CN(c1ccc2cccc(O)c2n1)c1ccc2cccc(O)c2n1", 311],
  ["Oc1ccc(/C=C/c2ccc3cccc(O)c3n2)cc1", 233],
  ["O=C(NCCc1ccccn1)c1ccc2cccc(O)c2n1", 741],
  ["Oc1cc2cccnc2c2cccnc12", 186],
  ["Cc1ccc2c(c1)sc(-c1ccc(N(C)C)cc1)[n+]2C", 188],
  ["Oc1c(Br)cc(-c2cc(F)cc(F)c2)c2cccnc12", 221],
  ["CN(CCc1ccccn1)Cc1ccc2cccc(O)c2n1", 183],
  ["FC(F)(F)CSc1cccc2cccnc12", 450],
  ["C1CNCCSCCN1", 220],
  ["O/N=C/c1ccc2cccc(O)c2n1", 385],
  ["Cc1ccccc1-c1cc(-c2ccccc2C)c2cccnc2c1O", 220]
]}
